Entry source: PubChem BioAssay (NCI)

# System: HL-60(TB) leukemia
# protocolSummary: NCI-60 one-dose screen, 48 h (100 = growth as untreated, 0 = no growth, -100 = all killed)
# experimentalSetup: 10 µM unless noted
About 83,000 compounds went through this panel and 20% of them were active in at least one assay; those are over-represented in the sample as a whole. Active and inactive are the calls of the source. The calls were made as follows: active = growth percent below 10; inactive = the rest.
quantity: growth

Use the examples below as a reference point.
compoundstructure=O=C(CS)Nc1ccc2ccccc2c1 systemname="HL-60(TB) leukemia" quantity=growth measurement="120% (inactive)"
compoundstructure=O=C(CCNCc1ccccc1)c1ccccc1 systemname="HL-60(TB) leukemia" quantity=growth measurement="104% (inactive)"
compoundstructure=O=C(/C=C/c1ccccc1)n1c(-c2ccccc2)nc2ccccc21 systemname="HL-60(TB) leukemia" quantity=growth measurement="101% (inactive)"
compoundstructure=CCc1c2c(nc3ccc(OC(=O)OCc4ccc(B5OC(C)(C)C(C)(C)O5)cc4)cc13)-c1cc3c(c(=O)n1C2)COC(=O)[C@]3(O)CC systemname="HL-60(TB) leukemia" quantity=growth measurement="12% (inactive)"

Prompt: Lab note: need growth for `CSc1nc2c(c(=O)[nH]1)C1(C(=O)Nc3ccccc31)c1c(nc(SC)[nH]c1=O)N2` on HL-60(TB) leukemia, anyone have it?
Completion: 107% (inactive)

###

Property: growth; scope: individual molecules
# System: RPMI-8226 leukemia
# protocolSummary: NCI-60 one-dose screen, 48 h (100 = growth as untreated, 0 = no growth, -100 = all killed)
# experimentalSetup: 10 µM unless noted
Compounds without any hit were thinned out: in the full panel of roughly 83,000, 20% have a hit.
Give a bare numeral; the unit % is implied.

Sample answers from the record:
molecule=Cc1ccccc1O quantity=growth measurementunit=% measurement=108
molecule=CCN(CC)c1ccc(C=C2C(=O)NC(=S)NC2=O)cc1 quantity=growth measurementunit=% measurement=-18.9
molecule=C[C@]12C[C@H](O)[C@H]3[C@@H](CCC4=CC(=O)CC[C@@]43C)[C@@H]1CC[C@@H]2O quantity=growth measurementunit=% measurement=98.3

Prompt: If you can, please state the reported growth value of `C/C(=N/OC(=O)N(C)C)c1cc(Cl)ccc1Cl` .
Completion: 97.9

Prompt: Quick one: growth of `CCN(CC)CCOc1c(C(C)C)cccc1C(C)C` ?
Completion: 103

Prompt: If you can, please state the reported growth value of `Cc1cc(C)nc(C)c1.[Cl][Hg][Cl]` .
Completion: 98.9

Prompt: Quick one: growth for `O=C(O)c1nn(Cc2ccc(Cl)cc2)c2ccccc12` ?
Completion: 98.4

Prompt: For the molecule shown here, CCC(C)/C=C(C)/C=C/C(=O)c1c(O)c(-c2ccc(O)cc2)c[nH]c1=O (centres undefined) , give the reported growth.
Completion: 41.6

###

molecules and their reported growth
# Tested on: HL-60(TB) leukemia
# protocolSummary: NCI-60 one-dose screen, 48 h (100 = growth as untreated, 0 = no growth, -100 = all killed)
# experimentalSetup: 10 µM unless noted
This is part of a sample that, as a whole, favours compounds with a hit. Of some 83,000 tested, about 20% had one in any assay.
Write the value in % as a bare number.

Prompt: Consider the molecule `COC(=O)CNS(=O)(=O)c1ccc2c(c1)Cc1cc(S(=O)(=O)NCC(=O)OC)ccc1-2` and give its measured growth.
Completion: 98.5

###

# Test system: OVCAR-4 ovarian
# protocolSummary: NCI-60 one-dose screen, 48 h (100 = growth as untreated, 0 = no growth, -100 = all killed)
# experimentalSetup: 10 µM unless noted
This is part of a sample that, as a whole, favours compounds with a hit. Of some 83,000 tested, about 20% had one in any assay.
Listing of recorded growth by entry.
Enter your answer as a number in %; do not include the unit.

Worked examples follow.
compound="c1ccc([As]=[As]c2ccccc2)cc1 (stereo not given)" systemname="OVCAR-4 ovarian" measurement=7.07
compound=O=C(C(=O)N1CCCC1)c1cn(CCCCCn2cc(C(=O)C(=O)N3CCCC3)c3ccccc32)c2ccccc12 systemname="OVCAR-4 ovarian" measurement=73
compound=O=C(N/N=C/c1ccc([N+](=O)[O-])o1)c1cc([N+](=O)[O-])cc([N+](=O)[O-])c1O systemname="OVCAR-4 ovarian" measurement=106
compound=C/C(=C\C(=O)O[C@H]1[C@@H]2[C@H](C)CC[C@H]2[C@]2(C)O[C@@]1(C1CCCCC1)C[C@H]2OC(=O)CO)c1ccccc1 systemname="OVCAR-4 ovarian" measurement=38.5
compound=CO[C@@H]1[C@H](OC(=O)NC(=O)CCl)CC[C@]2(CO2)[C@H]1[C@@]1(C)O[C@@H]1CC=C(C)C systemname="OVCAR-4 ovarian" measurement=47.8
compound=CC1=C(SCCC(=O)OCC(=O)NCCC[Te]c2ccccc2)C(=O)c2ccccc2C1=O systemname="OVCAR-4 ovarian" measurement=87.4

Prompt: Entry under review: O=C(O)CC(Br)C(=O)CBr (stereo not given) . Reported growth?
Completion: 97.2

Prompt: // lookup growth for `COc1ccccc1N1CCN(CCc2c[nH]c3cc4c(cc23)OCO4)CC1`
Completion: 99.2

Prompt: Which growth value is on record for CNC(C)Cc1ccccc1 (stereo not given) (tested in a mixture with another compound) ?
Completion: 104

Prompt: I have this compound here, ClCCN(CCCl)C(c1ccccc1)c1ccc(Cl)cc1 (stereo not given) , and I need its recorded growth.
Completion: 96.9

###

# Tested on: HL-60(TB) leukemia
# protocolSummary: NCI-60 one-dose screen, 48 h
# experimentalSetup: 10 µM unless noted
Compounds without any hit were thinned out: in the full panel of roughly 83,000, 20% have a hit. Calls of active or inactive are those of the source. The calls were made as follows: active = growth percent below 10; inactive = the rest.
Response enum: active, inactive

Please review the entries below; each comes with its answer.
compound=CCOC(=O)c1c(C)nc2c(c1N)/C(=C/c1ccc(OC)cc1)C(=O)N2Cc1ccccc1 systemname="HL-60(TB) leukemia" cat=inactive
compound=COc1cc(/C=C/C(=O)N2CCN(C(=O)/C=C/c3cc(OC)c(OC)c(OC)c3)CC2)cc(OC)c1OC systemname="HL-60(TB) leukemia" cat=inactive
compound=Nc1ccccc1NC(=O)c1ccc(-n2nc(-c3ccccc3)c3ccccc32)cc1 systemname="HL-60(TB) leukemia" cat=active
compound=COc1cc2nc(-c3ccc(Cl)cc3)cc(OCCCN3CCCCC3)c2cc1OC systemname="HL-60(TB) leukemia" cat=inactive

Prompt: // outcome(item) with item = `CC(C)=CC/C=C(/C)[C@H]1CC[C@]2(C)[C@@H]1CC[C@@H]1[C@@]3(C)CCC(=O)NC(C)(C)[C@@H]3CC[C@]12C`
Completion: active

Prompt: Record request — test call for `O=C(Nc1cccc(C2=NCCN2)c1)c1ccc(N=Nc2ccc(C(=O)Nc3cccc(C4=NCCN4)c3)cc2)cc1`
Completion: inactive

Prompt: Identify the outcome logged in this assay for the compound shown: `O=C(CCCSc1nc(-c2ccc(Cl)cc2)cc(-c2ccc(Cl)cc2)n1)NO`
Completion: active

Prompt: # outcome recorded in this test, key = `NC(=N\N=C/Cc1ccccc1)/C(N)=N\N=C\Cc1ccccc1`
Completion: inactive

Prompt: Record lookup: outcome of this test for CCN1C(=O)N(CC)C2C1NN=c1s/c(=C\c3ccc(C(F)(F)F)cc3)c(=O)n12 (centres undefined) ?
Completion: active

###

# Test system: 786-0 renal
# protocolSummary: NCI-60 one-dose screen, 48 h (100 = growth as untreated, 0 = no growth, -100 = all killed)
# experimentalSetup: 10 µM unless noted
The panel holds about 83,000 compounds, 20% with a hit somewhere; the sample as a whole holds those more often.
growth values, listed per item
The reply should contain only the number, in %.

Look over these answered cases.
compound="N#CC1=C(N)Oc2cc3c(cc2C1c1cccs1)OCO3 (configuration not stated)" measurement=49.5
compound=O=C(/C=C/c1ccccc1)N[C@@H](CO)Cc1cnc[nH]1 measurement=103
compound=C=C=[CH][Sn]([c]1ccccc1)([c]1ccccc1)[c]1ccccc1 measurement=-81.2
compound="CCC(C)[C@H]1O[C@]2(C=C[C@@H]1C)C[C@@H]1C[C@@H](C/C=C(\\C)[C@@H](OC3C[C@H](OC)C(O[C@H]4C[C@H](OC)[C@@H](O)[C@H](C)O4)[C@H](C)O3)[C@@H](C)/C=C/C=C3\\CO[C@@H]4[C@H](O)C(C)=C[C@@H](C(=O)O1)[C@]34O)O2 (some centres not stated)" measurement=0.269
compound=CCC(C)(C)O measurement=114

Prompt: Return reported growth; argument: `Nc1c(Br)cc2c3c(cccc13)-c1ccccc1-2`
Completion: 94.9

Prompt: Suppose we examine the compound `CO[C@@H]1[C@H](OC(=O)NC(=O)CCl)CC[C@]2(CO2)[C@H]1[C@@]1(C)O[C@@H]1CC=C(C)C` ; what growth value has been reported?
Completion: 70.4
